Listing of entries alongside the reported kon.
studySystem: T1, pepN48 (peptide of the 48 N-terminal extracellular amino acids of human CXCR2) (human, biotin labeled on its N-terminus (panning, ELISA, SPR))
T1 construct: Synthetic; also called N-terminus of CXCR2
T1 peptide: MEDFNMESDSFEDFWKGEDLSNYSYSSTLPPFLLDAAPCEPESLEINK
protocolText: SPR, Biacore T200; biotinylated pepN48 on SA chip;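 further: antibodies flowed in HBS-EP+ running buffer over the immobilized antigen at 0.5 to 10 nM, kinetic traces fitted to a protein-protein interaction model to derive constants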
valueKind: kon (M⁻¹ s⁻¹)

>  <binder>
abN48-7 (antibody, V domains shown, format as tested not clearly stated) VH: QVQLVQSGAEVKKPGSSVKVSCKASGGTLSSYAISWVRQAPGQGPEWMGWINPNSGGTNYAQKFQGRVTMTRDTSISTAYMELSRLRPDDTAVYYCASGYCGRARCTSFWGQGTLVTVSS VL: QAVLTQPSSLSASPGASVSLTCTLRSGINVGAYRIYWYQQKPGSPPQFLLRYKSDSDKQQGSGVPSRFSGSRDASANAGILLISGLRSEDEADYYCAIWHSSAWVFGGGTQLTVLG

>  <valueKind>
kon

>  <unitsSymbol>
M⁻¹ s⁻¹

>  <numericResult>
1.3e+07

$$$$
>  <binder>
abN48-8 (antibody, V domains shown, format as tested not clearly stated) VH: QVQLVQSGAEVKKPGSSVKVSCKASGGTLSSYAISWVRQAPGQGPEWMGWINPNSGGTNYAQKFQGRVTMTRDTSISTAYMELSRLRPDDTAVYYCASGYCSRSRCYDYWGQGTLVTVSS VL: QAVLTQPSSLSASPGASVSLTCTLRSGINVGAYRIYWYQQKPGSPPQFLLRYKSDSDKQQGSGVPSRFSGSRDASANAGILLISGLRSEDEADYYCAIWHSSAWVFGGGTQLTVLG

>  <valueKind>
kon

>  <unitsSymbol>
M⁻¹ s⁻¹

>  <numericResult>
1.2e+06

$$$$
>  <binder>
abN48-1 (antibody, V domains shown, Format as tested not clearly stated (sub-cloned to pFuse vector, expressed in HEK293T)) VH: QVQLVQSGAEVKKPGSSVKVSCKASGGTLSSYAISWVRQAPGQGPEWMGWINPNSGGTNYAQKFQGRVTMTRDTSISTAYMELSRLRPDDTAVYYCASGFCTRTICFVYWGQGTLVTVSS VL: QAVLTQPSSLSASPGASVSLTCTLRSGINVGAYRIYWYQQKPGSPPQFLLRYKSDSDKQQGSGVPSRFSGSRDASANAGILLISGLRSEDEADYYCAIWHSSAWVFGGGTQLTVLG

>  <valueKind>
kon

>  <unitsSymbol>
M⁻¹ s⁻¹

>  <numericResult>
250000

$$$$
>  <binder>
abN48-3 (antibody, V domains shown, format as tested not clearly stated) VH: QVQLVQSGAEVKKPGSSVKVSCKASGGTLSSYAISWVRQAPGQGPEWMGWINPNSGGTNYAQKFQGRVTMTRDTSISTAYMELSRLRPDDTAVYYCASGYCSFAICFDSWGQGTLVTVSS VL: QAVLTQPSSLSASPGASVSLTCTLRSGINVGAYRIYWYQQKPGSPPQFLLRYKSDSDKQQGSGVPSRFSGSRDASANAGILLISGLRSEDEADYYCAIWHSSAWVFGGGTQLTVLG

>  <valueKind>
kon

>  <unitsSymbol>
M⁻¹ s⁻¹

>  <numericResult>
360000

$$$$
>  <binder>
abN48-5 (antibody, V domains shown, format as tested not clearly stated) VH: QVQLVQSGAEVKKPGSSVKVSCKASGGTLSSYAISWVRQAPGQGPEWMGWINPNSGGTNYAQKFQGRVTMTRDTSISTAYMELSRLRPDDTAVYYCASGYCSRFNCKDYWGQGTLVTVSS VL: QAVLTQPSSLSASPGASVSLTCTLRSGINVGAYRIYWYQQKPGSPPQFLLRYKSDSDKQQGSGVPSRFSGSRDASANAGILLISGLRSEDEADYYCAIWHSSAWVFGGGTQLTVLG

>  <valueKind>
kon

>  <unitsSymbol>
M⁻¹ s⁻¹

>  <numericResult>
810000

$$$$
